# System: Mycobacterium tuberculosis H37Rv
# Measurement protocol: Mycobacterium tuberculosis H37Rv Inhibition Assay (Whole Cell Assay)
# Assay type: cell-based
# Condition description: ATCC 25618 / H37Rv, H37Rv strain (ATCC25618), Middlebrook 7H9, six days at 37° C., resazurin fluorescence after 48 hours
Measurement name: MIC

molecule CCc1ccc([C@H]2C[C@@H](C(F)(F)F)n3ncc(C(=O)NCc4cccc(OC)c4)c3N2)cc1 (relative stereo) , MIC observed: ≤ 1 µM

molecule CCc1ccc([C@H]2C[C@@H](C(F)(F)F)n3ncc(C(=O)NCc4ccco4)c3N2)cc1 (single isomer, unassigned) , MIC observed: ≤ 1 µM

molecule CCc1ccc([C@H]2C[C@@H](C(F)(F)F)n3ncc(C(=O)NCc4ccc(C)c(F)c4)c3N2)cc1 (relative stereo) , MIC observed: ≤ 1 µM

molecule CCc1ccc([C@H]2C[C@@H](C(F)(F)F)n3ncc(C(=O)NCc4ccc(OC)c(OC)c4)c3N2)cc1 (relative stereo) , MIC observed: > 2 µM

molecule COc1ccc(C2CC(C(F)(F)F)n3ncc(C(=O)NCc4ccccc4)c3N2)cc1 (stereo not drawn) , MIC observed: > 2 µM

molecule CCc1ccc([C@H]2C[C@@H](C(F)(F)F)n3ncc(C(=O)NCc4ccc(F)c(C)c4)c3N2)cc1 (relative stereo) , MIC observed: ≤ 1 µM

Just for reference, patent US20140038989A1 is where these values come from.
